Readings of z-score for the listed compounds
Test: E. coli growth modulation, two-sided OD650, primary screen, E. coli filamentation project, strain DRC41, 24 h (AID 1093);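 further: MC1000 strain lacking acrAB efflux and sulA so SOS filamentation is blocked; test concentration not given here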
Settings: OD650, 24 h, higher = more signal, called active from +8 up or from −8 down
// response body must contain only the number

// below: answered compounds
{"Compound": "CCN(CC)c1ccc(N2CC=CC34O[C@@H]5C=CCOC(=O)[C@@H]5[C@H]3C(=O)N(C(CO)C(C)C)[C@@H]4C2=O)cc1 (stereo not given in full)", "z-score": 1.59}
{"Compound": "C=CCN1C(=O)[C@@]2(O[C@@H](CCn3cc(CCO)nn3)[C@H]([Si](C)(C)c3ccc(OC)cc3)[C@H]2C)c2cc(NC(=O)c3ccc(OC)cc3)ccc21", "z-score": 1.31}

INPUT: Query (compound): [N-]=[N+]=NCc1ccccc1C[C@]1(C(=O)NCc2ccccc2)N=C(c2ccc(OCCCO)cc2)O[C@H]1c1ccccc1 ; field requested: z-score
OUTPUT: 1.85

INPUT: Returns the measured z-score for the input compound. Input: COCCCNC(=O)[C@@]1(C)c2ccccc2C(=O)N(Cc2cc(F)cc(C(F)(F)F)c2)[C@H]1c1ccc(CO)cc1
OUTPUT: 0.985

INPUT: What value of z-score has been reported for the following compound? O=C(NC1CC1)[C@@H]1c2ccccc2C(=O)N(Cc2ccccc2C(F)(F)F)[C@H]1c1ccc(CO)cc1
OUTPUT: 1

INPUT: Requested read-out: z-score. Entry: COC(=O)C(CC#Cc1ccc2c(c1)[C@]1(C(=O)N2)[C@H](C(=O)O)[C@H]2C(=O)O[C@H](c3ccccc3)[C@H](c3ccccc3)N2[C@@H]1c1ccc(OCCO)cc1)C(=O)OC
OUTPUT: 3.49

INPUT: Would you kindly share the measured z-score for C=CCC(OC(C)=O)[C@@H]1[C@@H](N(Cc2cccc3ccccc23)C(=O)c2cccc3ccccc23)c2cc(OCCCO)ccc2N1C(=O)Cc1ccc(OC)cc1 (stereo not given in full) ?
OUTPUT: 2.09

INPUT: Item under review: NC(=O)N1C(=O)C2C(C1=O)C1C=C(c3ccc(CO)cc3)C2C(C2CC2)N1Cc1cc2c(cc1Br)OCO2 (stereo not given) . Reported z-score?
OUTPUT: 1.19

INPUT: I have this compound here, C=C(COC)C(=O)CC[C@@H](OC(=O)c1ccccc1-c1ccccc1C(=O)O)c1cccc(OCCO)c1 , and I need its recorded z-score.
OUTPUT: 0.826

INPUT: z-score for CCN(CC)c1ccc(N2CC=CC34O[C@@H]5C=CCOC(=O)[C@@H]5[C@H]3C(=O)N(C(C)CO)[C@@H]4C2=O)cc1 (stereo not given in full) ?
OUTPUT: 1.7

INPUT: Name the reported z-score value associated with the compound [N-]=[N+]=Nc1ccccc1[C@H]1OC(c2ccc(OCCCO)cc2)=N[C@@]1(Cc1ccccc1)C(N)=O
OUTPUT: 1.6

INPUT: For the compound CC(C)(C)OC(=O)CC[C@@]1(C(=O)N2CCOCC2)N=C(c2ccc(OCCCO)cc2)O[C@@H]1c1ccccc1 , what z-score is on record?
OUTPUT: 1.32

INPUT: Quick one: z-score of CCOC(=O)C[C@H]1[C@H](OC(=O)c2cc3ccccc3oc2=O)[C@@H](NC(=O)c2ccccc2)c2cc(OCCCO)ccc2N1C(=O)Cc1ccc(OC)cc1 ?
OUTPUT: 2.9

INPUT: Fill blank: measured z-score of the compound CCCCCN1CC=CC23O[C@@H]4/C=C\CCC(C)OC(=O)C4[C@H]2C(=O)N(CCCO)[C@@H]3C1=O (stereo not given in full) is ____.
OUTPUT: 1.77

INPUT: Item C=CC[C@]1(C(=O)N(C)C)N=C(c2ccc(OCCCO)cc2)O[C@H]1c1ccccc1CN=[N+]=[N-] has what recorded z-score?
OUTPUT: 1.39

INPUT: Fill in the blank: the reported z-score of COc1ccc([Si](C)(C)[C@H]2[C@H](CCO)O[C@@]3(C(=O)N(Cc4ccc(N5C(=O)c6cccc7cccc5c67)cc4)c4ccccc43)[C@@H]2C)cc1 is ____.
OUTPUT: 2.02

INPUT: I'd like to know its z-score. The compound in question is C/C=C/[C@@H](CCn1cc(CCO[Si](C(C)C)(C(C)C)C(C)C)nn1)[Si](C)(C)c1ccc(OC)cc1
OUTPUT: -0.715

INPUT: Consider the compound C=CCN1C(=O)[C@@]2(O[C@@H](CCn3cc(CCO)nn3)[C@H]([Si](C)(C)c3ccc(OC)cc3)[C@H]2C)c2cc(N3C(=O)c4cccc5cccc3c45)ccc21 and give its measured z-score.
OUTPUT: 2.4

INPUT: Entry under review: COCCOC(=O)N1C(=O)[C@@]2(c3cc(C#CCCO)ccc31)[C@H](c1ccccc1OCCO)N1[C@H](c3ccccc3)[C@H](c3ccccc3)OC(=O)[C@H]1[C@@H]2C(=O)NC[C@H](O)c1ccccc1 . Reported z-score?
OUTPUT: 3.51

INPUT: Requested field: z-score. Item: COC(=O)C1=CC(c2ccc(CO)cc2)=CC(c2cccs2)N(C)C=C1C(=O)OC (stereo not given)
OUTPUT: 0.637

INPUT: Could you tell me which z-score is on file for CCOC(=O)C[C@H]1[C@H](OC(=O)c2ccc(-c3ccccc3)cc2)[C@@H](NC(=O)C2CCCCC2)c2cc(OCCCO)ccc2N1C(=O)c1ccc2ccccc2n1 ?
OUTPUT: 2.33

INPUT: Return reported z-score; argument: C=C1C=C(Br)C2(OCCCO2)[C@H]2OC12 (stereo not given in full)
OUTPUT: 0.294

---

Test: RPMI8226 myeloma cell viability, profiling panel, resazurin fluorescence, basal, 24 h, PK04 Diversity Set (AID 1180);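 further: RPMI8826 multiple myeloma cell line at 5000 cells per well; test concentration not given here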
Details: higher = more signal
Value Type: z-score

Worked examples, 3 compounds total:
{"Smiles Data": "O=C(NCC(F)(F)F)[C@@H]1c2ccccc2C(=O)N(C2Cc3ccccc3C2)[C@H]1c1ccc(CO)cc1", "z-score": 1.61}
{"Smiles Data": "Cc1ccc(N2C(=O)c3ccccc3[C@](C)(C(=O)NC3CC3)[C@@H]2c2ccc(CO)cc2)nc1", "z-score": 1.51}
{"Smiles Data": "C=CCNC(=O)[C@@H]1[C@H]2C(=O)O[C@H](c3ccccc3)[C@H](c3ccccc3)N2[C@H](c2ccc(O)cc2)[C@@]12C(=O)Nc1ccc(C#Cc3ccc(OC)cc3)cc12", "z-score": -3.89}

INPUT: Item under review: CC(C)(C)OC(=O)CC[C@@]1(C(=O)NCc2ccccc2)N=C(c2ccc(OCCCO)cc2)O[C@@H]1c1ccccc1CN=[N+]=[N-] . Reported z-score?
OUTPUT: 0.394

---

Target: Torsin-1A-interacting protein 2 (Homo sapiens) (UniProt Q8NFQ8)
Sequence (Q8NFQ8 whole entry, looked up): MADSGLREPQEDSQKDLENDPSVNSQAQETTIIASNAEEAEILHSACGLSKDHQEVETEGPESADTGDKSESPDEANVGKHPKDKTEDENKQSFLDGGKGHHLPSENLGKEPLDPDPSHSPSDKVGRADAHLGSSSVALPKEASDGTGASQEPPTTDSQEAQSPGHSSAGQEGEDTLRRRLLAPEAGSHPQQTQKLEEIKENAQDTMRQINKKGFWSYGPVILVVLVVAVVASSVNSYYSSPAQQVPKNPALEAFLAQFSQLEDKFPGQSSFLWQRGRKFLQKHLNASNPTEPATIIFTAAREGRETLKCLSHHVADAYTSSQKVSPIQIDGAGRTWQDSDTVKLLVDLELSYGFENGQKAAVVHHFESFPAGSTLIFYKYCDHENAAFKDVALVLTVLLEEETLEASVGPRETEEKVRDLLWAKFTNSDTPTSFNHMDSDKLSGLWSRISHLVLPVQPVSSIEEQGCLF
Assay: LULL1 binders on small-molecule microarray, primary screen, cell lysate, human LULL1 lysate, 635/667 nm fluorescence (AID 1092);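 further: probe is lysate of COS7 cells overexpressing human LULL1; score merges per-feature 667 nm fluorescence with signal-to-noise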
Conditions: hLULL1 lysate binding, 635 nm fluorescence, higher = more signal
Value Type: composite z-score
Respond with the number and no other words.

{"Molecule": "CC(C)C[C@@H]1NC(=O)[C@@]23C(=O)N[C@@H](Cc4ccccc4)C2[C@H](C)[C@@]2(C)O[C@H]2C3/C=C/CC/C=C/CNC(=O)[C@@H](C)NC1=O (stereo partly drawn)", "Measurement Target": "Torsin-1A-interacting protein 2 (Homo sapiens) (UniProt Q8NFQ8)", "Value": -0.664}
{"Molecule": "NC(=O)NCC#Cc1ccc2c(c1)[C@]1(C(=O)N2)[C@H](c2ccc(OCCO)cc2)N2[C@H](c3ccccc3)[C@H](c3ccccc3)OC(=O)[C@H]2[C@@H]1C(=O)Nc1nc2ccccc2s1", "Measurement Target": "Torsin-1A-interacting protein 2 (Homo sapiens) (UniProt Q8NFQ8)", "Value": 0.759}

Now look at this entry.
INPUT: If you can, please state the reported composite z-score value of CC(=O)OC(C/C=C\B1OC(C)(C)C(C)(C)O1)c1ccccc1 (stereo not drawn) .
OUTPUT: -0.126

---

Experiment: binders from COS7 lysate, DM2A8 probe, primary screen, torsin A project, cell lysate, small-molecule microarray, fluorescence 635/667 (AID 1065)
Conditions: higher = more signal, COS7 lysate expressing mutant human TOR1A
Value Type: composite z-score
Please give the numeric answer without any surrounding text.

Field: example entries. Status: answers known.
{"Smiles Data": "CCCCCCC#C[Si](O[C@H](c1ccccc1)c1cn(Cc2ccccc2)nn1)(C(C)C)C(C)C", "composite z-score": -0.0435}
{"Smiles Data": "C=C(COC)C(=O)CC[C@H](OC(=O)c1cccnc1)c1cccc(OCCO)c1", "composite z-score": 1.9}
{"Smiles Data": "COC(=O)c1c(CC[C@@H](CO)NC(=O)Nc2ccc(OC)cc2)oc(C(=O)Cc2ccccc2)c1C(=O)OC", "composite z-score": 0.469}
{"Smiles Data": "COCCOC(=O)N1C(=O)[C@@]2(c3ccccc31)[C@H](C(=O)Nc1nc3ccccc3s1)[C@H]1C(=O)O[C@H](c3ccccc3)[C@H](c3ccccc3)N1[C@@H]2c1ccc(O)cc1", "composite z-score": 0.202}
{"Smiles Data": "C=CCC1(CC=C)C[C@H]2CO[C@H](c3ccc(OC)cc3)N2C1=O", "composite z-score": 0.533}

INPUT: Need composite z-score, item CC(C)[Si](C#C[Si](C(C)C)(C(C)C)C(C)C)(O[C@H](C)c1cn([C@H](C)c2ccccc2)nn1)C(C)C
OUTPUT: 0.15

INPUT: composite z-score for CN(C)CCCC[C@@H]1NC(=O)[C@@H]2C[C@H](C(=O)NCCCCCNC(=O)CS)[C@H](c3cccc(OCCO)c3)N2C1=O ?
OUTPUT: 0.532

INPUT: // lookup composite z-score for C=C(COC)C(=O)CC[C@@H](OC(=O)c1ccccc1-c1ccccc1C(=O)O)c1cccc(OCCO)c1
OUTPUT: 0.098

Reference source: PubChem BioAssay
